All values here come from PubChem BioAssay AID652104.

- testSummary: qHTS of TDP-43 Inhibitors; also: nearly all actives have a fitted effect of over 50% in size
- experimentalParameters: TDP-43 expressing yeast growth rescue, BacTiter-Glo, 24 h; series mostly up to 46.1 µM
About 7,200 (1.8%) of roughly 410,000 compounds were called active. About 7% were inconclusive and are not listed. Calls follow the shape of the dose curve; as a rule, active = well fitted activation curve with a large enough effect; inconclusive = small, poorly fitted or top-dose-only effect, or another doubt; inactive = no such curve, though single readings can be large or run the other way. The entries come from a sample that favours actives as a whole.
Mark one answer only. Choices: active, inactive

compound: O=C(COc1ccc(Cl)cc1)NCCSc1ccccc1
label: active
//
compound: COc1cc(NC(=O)CN2CCN(S(=O)(=O)c3ccc(Br)cc3)CC2)cc(OC)c1
label: inactive
//
compound: O=C(CCSc1ccccc1)NCCSc1ccccn1
label: inactive

What call does the record list for `O=C(COc1ccc(Cl)cc1)N(Cc1ccco1)Cc1ccco1` ? inactive

###

- testSummary: qHTS of TDP-43 Inhibitors; also: nearly all actives have a fitted effect of over 50% in size
- experimentalParameters: TDP-43 expressing yeast growth rescue, BacTiter-Glo, 24 h; series mostly up to 46.1 µM
The whole screen tested about 410,000 compounds, of which about 7,200 (1.8%) were called active. Not shown: some 7% with an inconclusive outcome. Calls come from the whole dose curve; as a rule, active = well fitted activation curve with a large enough effect; inconclusive = small, poorly fitted or top-dose-only effect, or another doubt; inactive = no such curve, though single readings can be large or run the other way. Only a selection was taken, and actives are over-represented in it overall.
Mark one answer only. Choices: active, inactive

See these solved cases before continuing.
compound: CCOCCCNC(=O)c1cc2c(=O)n3ccccc3nc2s1
label: inactive
--
compound: COc1cccc(C(c2c(O)cc(C)n(Cc3ccco3)c2=O)N2CCN(c3ccccc3)CC2)c1 (configuration not stated)
label: inactive
--
compound: Cc1[nH]nc(-c2ccc(OCc3cnn(-c4ccccc4)c3)cc2O)c1Oc1ccc(Cl)cc1
label: inactive
--
compound: CCCCN1CC(c2nc3ccccc3n2CCCCOc2ccc(C)cc2C)CC1=O (configuration not stated)
label: inactive

What call does the record list for `O=C(Nc1ccccc1C(F)(F)F)c1cc(-c2ccc(O)cc2)on1` ? active

What call does the record list for `Cc1cc(Cl)ccc1OCc1nc(-c2ccncc2)no1` ? active

What call does the record list for `O=C(c1cnn(-c2ccc(Cl)cc2)c1)c1ccccc1O` ? inactive

What call does the record list for `Cc1cccc(C)c1NC(=O)CNC(=O)c1c(C)nn(-c2ccccc2)c1C` ? inactive

What call does the record list for `CC(=O)c1ccc(NC(=O)c2nc3nc(C)cc(C(F)F)n3n2)cc1` ? inactive

What call does the record list for `O=C(Nc1ccc(OC(F)(F)F)cc1)c1cc2c(=O)n3ccccc3nc2s1` ? inactive

What call does the record list for `COc1cccc(N2CCN(S(=O)(=O)c3cc(Br)cc4c3N(C(=O)C3CC3)CC4)CC2)c1` ? inactive

What call does the record list for `COc1ccc(CCNC(=O)c2cc(=O)c3c(C)cc(C)cc3o2)cc1OC` ? inactive

What call does the record list for `CCc1ccccc1NC(=O)c1cc(-c2ccc3c(c2)OCO3)on1` ? inactive

What call does the record list for `O=C(Oc1cccc(C(=S)N2CCOCC2)c1)c1cccc(Cl)c1` ? active

What call does the record list for `CCOC(=O)/C(=C\c1ccc([N+](=O)[O-])cc1)C(=O)c1cc(C(C)=O)c(Nc2ccccc2)s1` ? inactive

What call does the record list for `Cc1cccc(NC(=O)c2cc3c(C)nn(-c4ccccc4)c3s2)c1` ? active

What call does the record list for `COc1ccc(CCNC(=O)c2ccc(-n3c(C)cc4c3CCCC4)cc2)cc1OC` ? inactive

What call does the record list for `O=C(OCC(=O)N1CCOCC1)c1ccc2ccccc2c1` ? inactive

What call does the record list for `O=C(Oc1ccc(C(=S)N2CCOCC2)cc1)c1ccc(F)cc1` ? active

What call does the record list for `CN(C(=O)c1cc2c(=O)n3ccccc3nc2s1)C1CCCCC1` ? active

What call does the record list for `Cc1cccc(NC(=O)CSc2nnc(CNC(=O)c3cccc(C)c3)n2-c2ccccc2)c1` ? inactive

What call does the record list for `Cc1oc2ncnc(N3CCOCC3)c2c1C(=O)NCCc1ccccc1` ? inactive
